Experiment: HFrEF study Part 1 (SAD Cohorts 1 and 2): plasma pharmacokinetics
Type: in vivo, human
Conditions: human, plasma, oral; SAD Cohort 1, 525 mg (n = 2); read-out: t½ (converted)
Readout: half-life (h)
# output: bare number, implied unit h

Data request: Supply measured half-life of Cn1cc(S(=O)(=O)[C@@](C)(F)C2CCN(C(=O)Nc3ccon3)CC2)c(C(F)F)n1 [Compound I] in your reply.
Data returned: 24.7

====

Experiment: Single ascending oral dose study in healthy volunteers: plasma pharmacokinetics
Assay type: in vivo, human
Details: human, plasma, oral, 350 mg; read-out: AUC0-∞, Median
Readout: AUC(0-inf) (ng·h/mL)
# output: bare number, implied unit ng·h/mL

Data request: Supply measured AUC(0-inf) of `Cn1cc(S(=O)(=O)[C@@](C)(F)C2CCN(C(=O)Nc3ccon3)CC2)c(C(F)F)n1` in your reply.
Data returned: 76200

====

Assay: HFrEF study Part 2 (MAD Cohorts A-D): plasma pharmacokinetics
Type: in vivo, human
Details: human, plasma, oral, 75 mg, MAD Cohort A, 75 mg BID (4 h fasting); Mean; read-out: t1/2, λz (converted)
Description: This was a randomized, parallel-group, DB, placebo-controlled, adaptive design, sequential ascending (oral) multiple-close study in stable patients with heart failure. Four MAD Cohorts (A, B, C, D) were enrolled (FIG. 5B). An SRC reviewed results from each cohort and determined the close and confirmed initial sample size for the subsequent cohort. […]
Readout: half-life (h)
# output: bare number, implied unit h

Data request: Supply measured half-life of `Cn1cc(S(=O)(=O)[C@@](C)(F)C2CCN(C(=O)Nc3ccon3)CC2)c(C(F)F)n1` in your reply.
Data returned: 21.4

====

Test: Single ascending oral dose study in healthy volunteers: plasma pharmacokinetics
Format: in vivo, human
Conditions: human, plasma, oral, 10 mg; read-out: AUC0-last, Mean
Readout: AUC(0-t) (µg·h/mL)
# output: bare number, implied unit µg·h/mL

Data request: Supply measured AUC(0-t) of `Cn1cc(S(=O)(=O)[C@@](C)(F)C2CCN(C(=O)Nc3ccon3)CC2)c(C(F)F)n1` in your reply.
Data returned: 3.35

====

Test: Single ascending oral dose study in healthy volunteers: plasma pharmacokinetics
Format: in vivo, human
Details: human, plasma, oral, 525 mg, 24 Hours Postdose; 525 mg; read-out: Plasma concentration, Geometric Mean
Readout: concentration at 24 h

Data request: Supply measured concentration at 24 h of Cn1cc(S(=O)(=O)[C@@](C)(F)C2CCN(C(=O)Nc3ccon3)CC2)c(C(F)F)n1 [Compound I] in your reply.
Data returned: 1190 ng/mL

====

Assay: Single ascending oral dose study in healthy volunteers: plasma pharmacokinetics
Type: in vivo, human
Settings: human, plasma, oral, 50 mg, 12 Hours Postdose; 50 mg; read-out: Plasma concentration, Mean
Readout: concentration at 12 h (ng/mL)
# output: bare number, implied unit ng/mL

Data request: Supply measured concentration at 12 h of `Cn1cc(S(=O)(=O)[C@@](C)(F)C2CCN(C(=O)Nc3ccon3)CC2)c(C(F)F)n1` in your reply.
Data returned: 322

====

Assay: Single ascending oral dose study in healthy volunteers: plasma pharmacokinetics
Type: in vivo, human
Details: human, plasma, oral, 100 mg; read-out: AUC0-∞, Mean
Readout: AUC(0-inf) (ng·h/mL)
# output: bare number, implied unit ng·h/mL

Data request: Supply measured AUC(0-inf) of Cn1cc(S(=O)(=O)[C@@](C)(F)C2CCN(C(=O)Nc3ccon3)CC2)c(C(F)F)n1 [Compound I] in your reply.
Data returned: 21700

====

Experiment: Single ascending oral dose study in healthy volunteers: plasma pharmacokinetics
Type: in vivo, human
Conditions: human, plasma, oral, 525 mg, 12 Hours Postdose; 525 mg; read-out: Plasma concentration, Mean
Readout: concentration at 12 h
Just so you know, I need the unit written after the number.

Data request: Supply measured concentration at 12 h of `Cn1cc(S(=O)(=O)[C@@](C)(F)C2CCN(C(=O)Nc3ccon3)CC2)c(C(F)F)n1` in your reply.
Data returned: 1840 ng/mL

====

Experiment: Single ascending oral dose study in healthy volunteers: plasma pharmacokinetics
Type: in vivo, human
Conditions: human, plasma, oral, 48 Hours Postdose; 350 mg + 525 mg; read-out: Plasma concentration, Median
Readout: concentration at 48 h
Just so you know, I need the unit written after the number.

Data request: Supply measured concentration at 48 h of Cn1cc(S(=O)(=O)[C@@](C)(F)C2CCN(C(=O)Nc3ccon3)CC2)c(C(F)F)n1 [Compound I] in your reply.
Data returned: 415 ng/mL

====

Assay: Single ascending oral dose study in healthy volunteers: plasma pharmacokinetics
Type: in vivo, human
Conditions: human, plasma, oral, 175 mg, 72 Hours Postdose; 175 mg; read-out: Plasma concentration, Geometric Mean
Readout: concentration at 72 h (ng/mL)
# output: bare number, implied unit ng/mL

Data request: Supply measured concentration at 72 h of Cn1cc(S(=O)(=O)[C@@](C)(F)C2CCN(C(=O)Nc3ccon3)CC2)c(C(F)F)n1 [Compound I] in your reply.
Data returned: 64

====

Test: Single ascending oral dose study in healthy volunteers: plasma pharmacokinetics
Type: in vivo, human
Conditions: human, plasma, oral, 50 mg; read-out: Tmax, Mean
Readout: Tmax (h)
# output: bare number, implied unit h

Data request: Supply measured Tmax of `Cn1cc(S(=O)(=O)[C@@](C)(F)C2CCN(C(=O)Nc3ccon3)CC2)c(C(F)F)n1` in your reply.
Data returned: 4.69

====

Assay: Single ascending oral dose study in healthy volunteers: plasma pharmacokinetics
Format: in vivo, human
Conditions: human, plasma, oral, 25 mg, 24 Hours Postdose; 25 mg; read-out: Plasma concentration, Geometric Mean
Readout: concentration at 24 h (ng/mL)
# output: bare number, implied unit ng/mL

Data request: Supply measured concentration at 24 h of `Cn1cc(S(=O)(=O)[C@@](C)(F)C2CCN(C(=O)Nc3ccon3)CC2)c(C(F)F)n1` in your reply.
Data returned: 114

====

Assay: Single ascending oral dose study in healthy volunteers: plasma pharmacokinetics
Assay type: in vivo, human
Conditions: human, plasma, oral, 350 mg; read-out: Tmax, Median
Readout: Tmax (h)
# output: bare number, implied unit h

Data request: Supply measured Tmax of `Cn1cc(S(=O)(=O)[C@@](C)(F)C2CCN(C(=O)Nc3ccon3)CC2)c(C(F)F)n1` in your reply.
Data returned: 5

====

Test: Single ascending oral dose study in healthy volunteers: plasma pharmacokinetics
Format: in vivo, human
Details: human, plasma, oral, 3 mg, 48 Hours Postdose; 3 mg; read-out: Plasma concentration, Mean
Readout: concentration at 48 h (ng/mL)
# output: bare number, implied unit ng/mL

Data request: Supply measured concentration at 48 h of `Cn1cc(S(=O)(=O)[C@@](C)(F)C2CCN(C(=O)Nc3ccon3)CC2)c(C(F)F)n1` in your reply.
Data returned: 2.7

====

Test: Single ascending oral dose study in healthy volunteers: plasma pharmacokinetics
Format: in vivo, human
Details: human, plasma, oral, 100 mg, 24 Hours Postdose; 100 mg; read-out: Plasma concentration, Geometric Mean
Readout: concentration at 24 h (ng/mL)
# output: bare number, implied unit ng/mL

Data request: Supply measured concentration at 24 h of Cn1cc(S(=O)(=O)[C@@](C)(F)C2CCN(C(=O)Nc3ccon3)CC2)c(C(F)F)n1 [Compound I] in your reply.
Data returned: 374

====

Test: Single ascending oral dose study in healthy volunteers: plasma pharmacokinetics
Format: in vivo, human
Settings: human, plasma, oral, 10 mg; read-out: Half-Life Lambda Z, Mean (converted)
Readout: half-life (h)
# output: bare number, implied unit h

Data request: Supply measured half-life of `Cn1cc(S(=O)(=O)[C@@](C)(F)C2CCN(C(=O)Nc3ccon3)CC2)c(C(F)F)n1` in your reply.
Data returned: 13.4

====

Assay: Single ascending oral dose study in healthy volunteers: plasma pharmacokinetics
Type: in vivo, human
Details: human, plasma, oral, 25 mg; read-out: Vz/F, Geometric Mean
Readout: Vd/F (L)
# output: bare number, implied unit L

Data request: Supply measured Vd/F of `Cn1cc(S(=O)(=O)[C@@](C)(F)C2CCN(C(=O)Nc3ccon3)CC2)c(C(F)F)n1` in your reply.
Data returned: 67.3

====

Assay: Single ascending oral dose study in healthy volunteers: plasma pharmacokinetics
Assay type: in vivo, human
Details: human, plasma, oral, 175 mg, 6 Hours Postdose; 175 mg; read-out: Plasma concentration, Median
Readout: concentration at 6 h (ng/mL)
# output: bare number, implied unit ng/mL

Data request: Supply measured concentration at 6 h of Cn1cc(S(=O)(=O)[C@@](C)(F)C2CCN(C(=O)Nc3ccon3)CC2)c(C(F)F)n1 [Compound I] in your reply.
Data returned: 1250

====

Experiment: Single ascending oral dose study in healthy volunteers: plasma pharmacokinetics
Format: in vivo, human
Conditions: human, plasma, oral, 100 mg, 12 Hours Postdose; 100 mg; read-out: Plasma concentration, Mean
From the text: This example describes the first-in-human study of Compound I. Based on its mechanism of action, Compound I may offer a targeted therapy for patients with DCM caused by genetic or nongenetic mechanisms. […] The concentrations of Compound I in human plasma and urine were quantitated by high performance liquid chromatography with tandem mass spectrometric detection (LC MS/MS) (Biological sample analysis study report Alturas AD17-726). […]
Readout: concentration at 12 h (ng/mL)
# output: bare number, implied unit ng/mL

Data request: Supply measured concentration at 12 h of Cn1cc(S(=O)(=O)[C@@](C)(F)C2CCN(C(=O)Nc3ccon3)CC2)c(C(F)F)n1 [Compound I] in your reply.
Data returned: 674
